Could you please report measured pIC50 for the items listed next?
target: WDR5 (Homo sapiens); construct: N-terminal His-tagged WDR5 protein (residues 24-334), named WDR5Δ23; made in house; host or cells: E. coli Rosetta 2 (DE3); assay: fluorescence polarization (FP) based competitive binding assay to WDR5 protein
Starred links: 1 amine or outer side, 2 acyl side, 3 side chain; linkers in the order of their positions; H or OH if unused. Positions of bridges follow the written chain, without caps; N, C: chain ends. Non-standard residues stand in square brackets, D forms with d. Residues, ends and D or L forms follow the SMILES beside them. *: point of attachment. dαMeLys(Me) = CN(CCCC[C@@](C)(N[*:1])C(=O)[*:2])[*:3]; dαMeDab = C[C@](CCN[*:3])(N[*:1])C(=O)[*:2]; Arg(Me2s) = CN=C(NC)NCCC[C@H](N)C(=O)O; dPhg(4-F) = N[C@@H](C(=O)O)c1ccc(F)cc1; dPhg(2-F) = N[C@@H](C(=O)O)c1ccccc1F; Arg(Me) = CNC(=N)NCCC[C@H](N)C(=O)O; d(αMeK) = C[C@@](N)(CCCCN)C(=O)O; dPhg = N[C@@H](C(=O)O)c1ccccc1; Isobutyryl = CC(C)C(=O)*; Abu = CC[C@H](N)C(=O)O
Answer as the number alone; pIC50 is minus log10 of concentration in mol/L.

Please look up its pIC50: CC[C@@H]1NC(=O)[C@H](CCCNC(=N)N)NC(=O)[C@](C)(NC(=O)C(C)C)CCNC(=O)[C@@H](c2ccccc2F)NC1=O [Cpd. No. 79] (Isobutyryl-[dαMeDab]R[Abu][dPhg(2-F)]; lactam 1-C) 9.50

# query: pIC50 of entry CC[C@@H]1NC(=O)[C@H](CCCNC(=N)N)NC(=O)[C@](C)(NC(=O)C(C)C)CCNC(=O)[C@@H](c2cccc(Cl)c2)NC1=O [Cpd. No. 84] 8.83

What pIC50 value was documented for this compound, CC[C@@H]1NC(=O)[C@H](CCCNC(=N)N)NC(=O)[C@](C)(NC(=O)C(C)C)CCNC(=O)[C@@H](c2ccc(F)cc2)NC1=O [Cpd. No. 53] (Isobutyryl-[dαMeDab]R[Abu][dPhg(4-F)]; lactam 1-C) ? 9.06

Query (compound): CC[C@@H]1NC(=O)[C@H](CCCNC(=N)N)NC(=O)[C@](C)(NC(=O)C(C)C)CCCCN(C)C(=O)[C@@H](c2ccccc2)NC1=O [Cpd. No. 65] (Isobutyryl-[dαMeLys(Me)]R[Abu][dPhg]; lactam 1-C) ; field requested: pIC50 8.80

Which pIC50 is listed for CC[C@@H]1NC(=O)[C@H](CCCNC(=N)N)NC(=O)[C@](C)(NC(=O)C(C)C)CCNC(=O)[C@@H](c2ccc(OC)cc2)NC1=O [Cpd. No. 93] ? 8.75

Quick one: pIC50 of CC[C@@H]1NC(=O)[C@H](CCCNC(=N)N)NC(=O)[C@](C)(NC(=O)C(C)C)CCNC(=O)[C@@H](c2cccc(F)c2)NC1=O [Cpd. No. 80] ? 8.54

Field request: pIC50 | item: CC[C@@H]1NC(=O)[C@H](CCCNC(=N)N)NC(=O)[C@](C)(NC(=O)C(C)C)CCNC(=O)[C@@H](c2ccc3ccccc3c2)NC1=O [Cpd. No. 82] 8.64

So what does the record say about pIC50 for CC[C@@H]1NC(=O)[C@H](CCCN/C(=N/C)NC)NC(=O)[C@](C)(NC(=O)C(C)C)CCCCNC(=O)[C@@H](c2ccccc2)NC1=O [Cpd. No. 69] (Isobutyryl-[d(αMeK)][Arg(Me2s)][Abu][dPhg]; lactam 1-C) ? 8.62

pIC50 for CC[C@@H]1NC(=O)[C@H](CCCNC(=N)NC)NC(=O)[C@](C)(NC(=O)C(C)C)CCCCNC(=O)[C@@H](c2ccccc2)NC1=O [Cpd. No. 68] (Isobutyryl-[d(αMeK)][Arg(Me)][Abu][dPhg]; lactam 1-C) ? 8.96

These data points were gathered from patent US20210130401A1.
